Target: human adenosine A2A receptor (Homo sapiens, UniProt P29274)
Construct: expressed in transfected cells; host or cells: CHO cells, semliki forest virus expression system; membrane preparation
Sequence (P29274 whole entry): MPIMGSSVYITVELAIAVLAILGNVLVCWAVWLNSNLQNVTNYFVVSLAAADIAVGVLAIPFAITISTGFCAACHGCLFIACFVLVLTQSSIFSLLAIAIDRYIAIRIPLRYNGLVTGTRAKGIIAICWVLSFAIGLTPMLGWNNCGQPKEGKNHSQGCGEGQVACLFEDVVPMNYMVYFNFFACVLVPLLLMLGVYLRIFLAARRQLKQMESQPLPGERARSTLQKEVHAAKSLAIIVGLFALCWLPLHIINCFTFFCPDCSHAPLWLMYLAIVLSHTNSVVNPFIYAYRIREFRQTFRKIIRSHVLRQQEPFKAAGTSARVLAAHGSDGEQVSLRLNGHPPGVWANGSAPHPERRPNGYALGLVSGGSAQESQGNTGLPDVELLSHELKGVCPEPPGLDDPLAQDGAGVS
Assay: Human adenosine A2A receptor [3H]-SCH-58261 binding assay
Conditions: human A2a receptor, membranes of CHO cells, [3H]-SCH-58261; read-out: pKi (affinity to the human A2a receptor) (converted)
Protocol: The gene encoding human adenosine A2A receptor was recombinantly introduced and expressed in chinese hamster ovary (CHO) cells using the semliki forest virus expression system. […] Assay plates were incubated for 1 hour at room temperature before centrifugation and then bound ligand determined using a Packard Topcount scintillation counter. IC50 values were calculated using a non-linear curve fitting program and Ki values calculated using the Cheng-Prussoff equation.
Where a name gives a salt, the structure may show the parent alone.
Response field label takes Met when Ki is strictly below 6 nM and Not met in all other cases.

# example entries with known answers
N#Cc1c(NCc2ccccc2N)nc(N)nc1-c1ccco1; Met
Nc1nc(OCC=Cc2ccccc2)c(Br)c(-c2ccco2)n1; Not met
Cc1ccc(COc2nc(N)nc(-c3ccco3)c2C#N)cn1; Met
N#Cc1c(N)nc(SCc2ccccc2)c(C#N)c1-c1cccs1; Not met

Quick check: does CCc1ccc(CNc2nc(N)nc(-c3ccco3)c2C#N)cc1 have Ki under 6 nM?
Met

# repeat for N#Cc1c(SCCCc2ccccc2)nc(N)nc1-c1ccco1
Met

# repeat for N#Cc1c(NCC2CCc3ccccc3N2)nc(N)nc1-c1ccco1 (racemic)
Not met

# repeat for Nc1nc(NCCCc2ccccc2)c(Br)c(-c2ccco2)n1 [Example 208, hydrochloride]
Not met

# repeat for Nc1nc(OCc2ccccn2)c(Br)c(-c2ccco2)n1
Not met
